Target: Nurr1 (Homo sapiens, UniProt P43354)
Construct: 3 types of plasmid DNA, including DNA containing Nurr1-LBD and DNA with β-galactosidase, were transfected into BE(2)C cells; expressed in transfected cells; host or cells: BE(2)C cells
Sequence (P43354 360-595 limits assumed): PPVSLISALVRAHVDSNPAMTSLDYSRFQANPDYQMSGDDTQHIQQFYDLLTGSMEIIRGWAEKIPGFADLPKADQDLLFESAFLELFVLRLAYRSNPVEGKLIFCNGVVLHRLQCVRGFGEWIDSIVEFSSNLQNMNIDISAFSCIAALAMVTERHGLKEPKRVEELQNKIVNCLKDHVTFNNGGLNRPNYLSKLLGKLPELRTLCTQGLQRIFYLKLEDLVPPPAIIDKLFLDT
Assay: Nurr1 activity, luciferase reporter analysis in transfected BE(2)C cells
Assay type: cell-based
Conditions: High concentration = 10 μM (Table 1); BE(2)C cells, 20 hours
Assign Nurr1 activity (luciferase), multiple of 0.1% DMSO control to each entry below.
Answers are plain numbers.

C=C(C)[C@]12C[C@@H](C)[C@@]34O[C@](c5ccccc5)(O[C@@H]1C3[C@@H]1O[C@]1(COC(=O)c1ccccc1)[C@@H](O)[C@@]1(O)C4C[C@H](C)[C@@H]1O)O2 (stereo partly drawn) [Formula 4]; 1.7
C=C(C)[C@]1(O)C[C@@H](C)[C@@]2(O)C([C@H]1OC(=O)c1ccccc1)[C@H](O)[C@@](O)(COC(=O)c1ccccc1)[C@@H](O)[C@@]1(O)C2C[C@H](C)[C@@H]1O (stereo partly drawn) [Formula 5]; 1.9
C=C(C)[C@]12C[C@@H](C)[C@@]34O[C@](c5ccccc5)(O[C@@H]1C3[C@@H]1O[C@]1(CO)[C@@H](O)[C@@]1(O)C4C[C@H](C)[C@@H]1O)O2 (stereo partly drawn) [Formula 8]; 1.6

For each listed entry, give its Nurr1 activity (luciferase), multiple of 0.1% DMSO control.
1. C=C(C)[C@]12C[C@@H](C)[C@@]34O[C@](c5ccccc5)(O[C@@H]1C3[C@H](O)[C@@](O)(CO)[C@@H](O)[C@@]1(O)C4C=C(C)[C@@H]1O)O2 (stereo partly drawn) [Formula 7]
2. C=C(C)[C@]12C[C@@H](C)[C@@]34O[C@](c5ccccc5)(O[C@@H]1C3[C@@H]1O[C@]1(CO)[C@@H](O)[C@]1(O)C(=O)[C@@H](C)CC41)O2 (stereo partly drawn) [Formula 9]
3. C=C(C)[C@]12C[C@@H](C)[C@@]34O[C@](c5ccccc5)(O[C@@H]1C3[C@H](O)[C@@](O)(COC(=O)c1ccccc1)[C@@H](O)[C@@]1(O)C4C[C@H](C)[C@@H]1O)O2 (stereo partly drawn) [Formula 3]

A)
1. 2.0
2. 1.5
3. 1.4
